Read-out: Collagen III, COL3A1 (gene 1281)
test.name: BSK_hDFCGF_CollagenIII: BioMAP Diversity Plus: hDFCGF Assay for Collagen III Biomarker Activity (AID 2283056)
run.parameters: primary human foreskin fibroblasts; actives raise or lower the signal
Active and inactive are the calls of the source. The calls were made as follows: active = hit-call score of the fitted dose curve at least 0.9, where 1 is the maximum; inactive = score below 0.9.
readout.type: AC50

Recorded AC50, per entry:
Consider the compound "O=[N+]([O-])C(CO)(CO)CO" and give its recorded AC50.
inactive

Consider the compound "CCCCN(CCCC)CCCC" and give its recorded AC50.
inactive

Consider the compound "CN[C@H]1CC[C@@H](c2ccc(Cl)c(Cl)c2)c2ccc(S(N)(=O)=O)cc21" and give its recorded AC50.
20 µM (active)

Consider the compound "CCCCc1ccc2c(n1)[C@@H](c1ccc(OC)cc1C[C@H](C)C(=O)O)[C@H](C(=O)O)[C@H]2c1ccc2c(c1)OCO2" and give its recorded AC50.
inactive

Consider the compound "C[C@]12C=CC(=O)C=C1CC[C@@H]1[C@@H]2C(=O)C[C@@]2(C)[C@H]1CC[C@]2(O)C(=O)CO" and give its recorded AC50.
inactive

Moving on to another compound below.
Consider the compound "CC1=C(/C=C/C(C)=C/C=C/C(C)=C/CO)C(C)(C)CCC1" and give its recorded AC50.
inactive

Data provenance is PubChem BioAssay (EPA / NIEHS).
